// data source = ChEMBL document CHEMBL1122572

# Test system: SW480
# experimental.details: In vitro inhibition of growth of the human gastrointestinal adenocarcinoma cells SW480
# Type: functional, cell-based
reported.metric: IC50 (µM)

# compound, test.system, IC50 [µM]
rows = [
    ("Cc1c(NCc2ccc(C(=O)NC(CCC(=O)O)C(=O)O)cc2)ccc2nc(N)nc(O)c12 (configuration not stated)", "SW480", 10),
]

I = Nc1nc(O)c2cc(N(C=O)Cc3ccc(C(=O)NC(CCC(=O)O)C(=O)O)cc3)ccc2n1 (configuration not stated)
II = CN(Cc1ccc(C(=O)NC(CCC(=O)O)C(=O)O)cc1)c1ccc2nc(N)nc(O)c2c1 (configuration not stated)
Which is greater in IC50, the first item I or the second item II ? Please identify the chosen entry by its label.
I

a = CN(Cc1cnc2nc(N)nc(N)c2n1)c1ccc(C(=O)N[C@@H](CCC(=O)O)C(=O)O)cc1 [METHOTREXATE]
b = Nc1nc(N)c2cc(NCc3ccc(C(=O)NC(CCC(=O)O)C(=O)O)cc3)ccc2n1 (configuration not stated)
c = Cc1c(N(C)Cc2ccc(C(=O)NC(CCC(=O)O)C(=O)O)cc2)ccc2nc(N)nc(O)c12 (configuration not stated)
List from greatest to least IC50. Sort the labels as requested; that list is your answer.
c, b, a
(c: 4.8 µM, b: 0.2 µM, a: 0.015 µM)

----------
Quick reference for IC50 among some compounds
# experimental.details: In vitro inhibition of growth of the human gastrointestinal adenocarcinoma cells HaTu80
# Format: functional
# run.conditions: Homo sapiens
Respond with the bare value in µM.

Please review the following examples before continuing.
# compound, IC50 [µM]
rows = [
    ("CN(Cc1ccc(C(=O)NC(CCC(=O)O)C(=O)O)cc1)c1ccc2nc(N)nc(O)c2c1 (stereo not given)", 4.8),
    ("Nc1nc(N)c2cc(NCc3ccc(C(=O)NC(CCC(=O)O)C(=O)O)cc3)ccc2n1 (stereo not given)", 0.15),
    ("Nc1nc(O)c2cc(N(C=O)Cc3ccc(C(=O)NC(CCC(=O)O)C(=O)O)cc3)ccc2n1 (stereo not given)", 95),
]

Here is another compound to look at.
Can you look up the measured IC50 of Cc1c(NCc2ccc(C(=O)NC(CCC(=O)O)C(=O)O)cc2)ccc2nc(N)nc(O)c12 (stereo not given) for me?
4
